- target.desc: Cbl (aa49-434) (Homo sapiens, UniProt P22681)
- Construct: Cbl (aa49-434, in-house); made in house
- Sequence (P22681 49-434): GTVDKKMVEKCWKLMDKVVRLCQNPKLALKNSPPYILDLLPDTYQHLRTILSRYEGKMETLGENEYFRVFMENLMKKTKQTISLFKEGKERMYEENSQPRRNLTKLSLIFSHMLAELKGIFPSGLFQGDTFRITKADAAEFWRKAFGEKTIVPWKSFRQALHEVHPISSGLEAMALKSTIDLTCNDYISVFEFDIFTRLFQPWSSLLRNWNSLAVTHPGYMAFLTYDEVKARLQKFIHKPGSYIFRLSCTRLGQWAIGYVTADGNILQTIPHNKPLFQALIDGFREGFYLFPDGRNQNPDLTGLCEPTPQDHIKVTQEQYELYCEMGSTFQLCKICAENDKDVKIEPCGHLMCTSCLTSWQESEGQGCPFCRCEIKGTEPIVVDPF
- protocol.summary: Co-expressed Cbl with BirA biochemical assay (CBL/E2-Ub binding, HTRF)
- protocol.conditions: 0.6 nM Cbl co-expressed with BirA, read-out: co-express CBL/E2-Ub-binding assay IC50

{"test.smiles": "C[C@@H]1CN(Cc2cc(C(=O)Nc3cccc([C@]4(c5nncn5C)C[C@@H](C)C4)c3)nc3c2NCC32CC2)CC[C@@H]1F", "IC50": "0.8 nM"}
{"test.smiles": "Cc1cnc2c(C(=O)Nc3cncc([C@]4(c5nncn5C)C[C@@H](C)C4)c3)cc(CN[C@H]3C[C@@H](C)C3)cn12", "IC50": "13 nM"}
{"test.smiles": "C[C@H]1CCCN(Cc2cc(C(=O)Nc3cccc([C@]4(Cc5nncn5C)C[C@@H](C#N)C4)c3)nc3c2CCC3(C)C)C1", "IC50": "1.8 nM"}
{"test.smiles": "Cn1cnnc1[C@]1(c2cncc(NC(=O)c3cc(CNC4(C)CCC4)cn4ccnc34)c2)C[C@H](C)C1", "IC50": "8.2 nM"}
{"test.smiles": "Cn1cnnc1[C@]1(c2cncc(NC(=O)c3cc(CNC4(C)CCC4)c4[nH]cc(F)c4n3)c2)C[C@H](C)C1", "IC50": "14 nM"}
{"test.smiles": "Cn1cnnc1[C@]1(c2cccc(NC(=O)c3cc(CNC4(C)CC4)cn4ncnc34)c2)C[C@H](CC#N)C1", "IC50": "45 nM"}
{"test.smiles": "Cn1cnnc1[C@]1(c2cccc(NC(=O)c3cc(CNCC4CCC(F)(F)CC4)c4[nH]ccc4n3)c2)C[C@H](CC#N)C1", "IC50": "19.5 nM"}
{"test.smiles": "Cn1cnnc1C[C@]1(c2cccc(NC(=O)c3cc(CNCC4(C)CCCC4)c4[nH]ccc4n3)c2)C[C@H](C#N)C1", "IC50": "8.8 nM"}
{"test.smiles": "C[C@H](NCc1cc(C(=O)Nc2cccc([C@]3(c4nncn4C)C[C@@H](CC#N)C3)c2)nc2c1CCC2(F)F)C1CC1", "IC50": "10.1 nM"}
{"test.smiles": "CC[C@H](C)NCc1cc(C(=O)Nc2cncc([C@]3(c4nncn4C)C[C@@H](C)C3)c2)c2nccn2c1", "IC50": "11.9 nM"}
{"test.smiles": "Cn1cnnc1[C@]1(c2cccc(NC(=O)c3cc(CN[C@H]4CCC(F)(F)C4)c4[nH]ccc4n3)c2)C[C@H](CC#N)C1", "IC50": "3.84 nM"}
{"test.smiles": "Cc1cnc2c(C(=O)Nc3cccc([C@]4(c5nncn5C)C[C@@H](CC#N)C4)c3)cc(CN3CCC[C@H](C)C3)cn12", "IC50": "70.1 nM"}
{"test.smiles": "C[C@H](NCc1cc(C(=O)Nc2cccc([C@]3(c4nncn4C)C[C@@H](C)C3)c2)nc2c1NCC2(C)C)C1CCC1", "IC50": "1.8 nM"}
